B1: HESX1 (parent)
chain: HVPNPPSGISFPSVVDHPMPEERA

Variants of: B1
Test: protein stability index of a GFP-peptide fusion (GPS, HEK-293T) (PSI 1-6); higher = more stable;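 note: lentivirally expressed fusions sorted by FACS into six bins by GFP to DsRed ratio, PSI derived from sequencing read proportions per bin multiplied by bin number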
Settings: c terminus: a fixed tail appended
Measured attribute: protein stability index
Output: the number by itself.

1) F11H = 4.48

Request: # protein stability index lookup, item `E22L`
Result: 1.94

Request: # protein stability index lookup, item `P12A`
Result: 3.44

Request: # protein stability index lookup, item `V2K`
Result: 5

Request: # protein stability index lookup, item `V14T`
Result: 3.49

Request: # protein stability index lookup, item `H1D`
Result: 5.46

Request: # protein stability index lookup, item `P18H`
Result: 2.49

Request: # protein stability index lookup, item `H17A`
Result: 3.2
